Experiment: Metabolic stability in human liver microsomes assessed as intrinsic clearance per mg of protein
Settings: liver microsomes
assay.endpoint: microsomal CLint (µL/min/mg)
Numbers only; they are read as µL/min/mg.

Check out these entries, answers already filled in.
compound: CN(C)CCCC1(c2ccc(F)cc2)OCc2cc(C#N)ccc21 (stereo not given) [CITALOPRAM]
microsomal CLint, µL/min/mg: 36
--
compound: COc1ccc(C(CN(C)C)C2(O)CCCCC2)cc1 (stereo not given) [VENLAFAXINE]
microsomal CLint, µL/min/mg: 59
--
compound: CC(/C=C/C(=O)NO)=C\[C@@H](C)C(=O)c1ccc(N(C)C)cc1 [TRICHOSTATIN]
microsomal CLint, µL/min/mg: 107
--
compound: CC(C)COCC(CN(Cc1ccccc1)c1ccccc1)N1CCCC1 (stereo not given) [BEPRIDIL]
microsomal CLint, µL/min/mg: 94
--
compound: CN(C)CCOc1ccc(/C(=C(/CCCl)c2ccccc2)c2ccccc2)cc1 [TOREMIFENE]
microsomal CLint, µL/min/mg: 31
--
compound: CN1[C@@H]2CC[C@H]1C[C@@H](OC(=O)c1c[nH]c3ccccc13)C2 [TROPISETRON]
microsomal CLint, µL/min/mg: 22

The compound c1ccc(C2(c3ccccc3)CC2C2=NCCN2)cc1 (stereo not given) [CIFENLINE] showed microsomal CLint equal to 28

The compound CN1CC(=O)N2[C@H](c3ccc4c(c3)OCO4)c3[nH]c4ccccc4c3C[C@@H]2C1=O showed microsomal CLint equal to 49

The compound c1ccc2c(c1)Sc1ccccc1N2CC1CN2CCC1CC2 (stereo not given) [MEQUITAZINE] showed microsomal CLint equal to 34

The compound CC(=O)CC(c1ccc([N+](=O)[O-])cc1)c1c(O)c2ccccc2oc1=O (stereo not given) [ACENOCOUMAROL] showed microsomal CLint equal to 37

----------
Assay: Metabolic stability in human liver microsomes assessed as intrinsic clearance per mg of protein
Details: microsomes
The compounds listed here are annotated with their log10 of microsomal CLint.
Values below are the log10 of the recorded microsomal CLint, with µL/min/mg as the unit.

compound: CN(C)CCCN1c2ccccc2Sc2ccc(Cl)cc21
log10 of microsomal CLint: 2.07

The compound CNC1(c2ccccc2Cl)CCCCC1=O (stereo unspecified) showed log10 of microsomal CLint equal to 2.13

The compound CNCCCC12CCC(c3ccccc31)c1ccccc12 showed log10 of microsomal CLint equal to 1.49

The compound COc1ccccc1OCCNCC(O)COc1cccc2[nH]c3ccccc3c12 (stereo unspecified) showed log10 of microsomal CLint equal to 2.37

The compound Cc1ncc2n1-c1ccc(Cl)cc1C(c1ccccc1F)=NC2 showed log10 of microsomal CLint equal to 2.74

The compound O=c1c(O)c(-c2ccc(O)cc2)oc2cc(O)cc(O)c12 showed log10 of microsomal CLint equal to 2.43
